- ASSAY INFO: soluble on expression in E. coli; label from the status in PepcDB or PDB records

BIOSEQUENCE	soluble on expression in E. coli
MVRKGRQHTEEALQEPRADRDRDVPNHIRGQAEQGVGARALQEGRGERAPQDTPAARGGRARGEGAREGEDYIARWEKPPRHHRQGDNGGARQDQARAGEVPLDLLILILIGP	soluble
MSLELTVFSIGDWGEKTECLVNVTTKMGSLESAMNPKFIISVGDNFYQRGVKSVEDAAWTEILEEPFGKLSKHLKVHSCLGDHDWRGSTTAQIDRTNYANNTRWYLPGYWWYEKVTFTSEVSLPSLFEKSGLGEISANNSFHFNSSKTENSTSCEIDCLDEIVDNLNTMVNRNNSWNEDLSYKTSISEYFSEKQVNSTAVFIYIDSWTLTQDPFKKTSISYKYSQLEFIEQTLKAAVFENVDWIILVTHYSIYSSGLHGPHTRLASILMPLIKKYRVDFIISGHDHHSEILVPEDFNSYFQIVGASSKPRTSFGATDENSIFKSNTCSFASFTFSKDIAVSRIFSINSSLFSYFKRSNKFEREGHHHHHH	not soluble
MGSDKIHHHHHHMLEQSIEAFKACVNDWLSAIAQLGEKPNRGNLHRFAYRAIRDKYPQLHSNVVQDAMNLAIEIYRSWLKNGGEFPKFRSDVIYFKGVDVRIENNGLVVPLMGRRVYLPLYVPKKYKKYLQYKHGRVIIKRVDKDWYALVSVNVPEKEPIKPVGTIGVDLGYYNLLVASDEKGRVVMRVQGDILIRHKEHMERLTARRQERLMKKFGIYARTNHKDRRFVNDLNHKIAKALVLKAKQLNRAIVLEKLKGLKKQRRPKLLRKILHLWSYADLIAKIVYKAKLYGVPVIFVSPRGTSKTCSNCGYYVRTFKDDRVFRCPKCGFVADRDYNASINIAKKGLEELRKRTFLPTLKDEASSPQGW	not soluble
GSAMAPTNDQLTDLQEAHFVVFESEENSESVMDGFVEHPFYTATLNGQKYVVMKTKDDSYWKDLIVEGKRVTTVSKDPKNNSRTLIFPYIPDKAVYNAIVKVVVANIGYEGQYHVRIINQDINTKDDDTSQ	soluble
MEVSKANGTENNVEKFDAATQEATYLDEADVDAELEAMKKRLQEMEEEANRLKEVQEQSASEVPSSEEVDRRSVYVGNVDYGSTPEELQAHFKECGTINRVTILCDKFTGHPKGFAYIEFATEEGANNAVILNESLFRGRNLKVSIKRTNVPGISTTDRGRGRGFPRGIGFRGRGGLRGGFRGRGYHGFRGRGRMTPY	soluble
MPRLVVNSIYASGAQYQGSSSKLYVNVSNLGTENAYNVLIQVYVNGKVYGSTTVSEIKAGASDNVSINWVPPTSGKVSVYATASVNSEPRSFVTAGALTQTVSVNPLEHHHHHH	not soluble
ATQSPGDSRRLSIQRAIQSLVHAAQCRNANCSLPSCQKMKRVVQHTKGCKRKTNGGCPICKQLIALAAYHAKHCQENKCPVPFCLNIKQKLRQQQLQHRLQQAQMLRRRMASMQ	soluble
SSAESASQIPKGQVDLLDFIDWSGVECLNQSSSHSLPNALKQGYREDEGLNLESDADEQLLIYIPFNQVIKLHSFAIKGPEEEGPKTVKFFSNKEHMCFSNVNDFPPSDTAELTEENLKGKPVVLKYVKFQNVRSLTIFIEANQSGSEVTKVQKIALYGST	soluble
LEIPTSTVVKETLTQLSAHRALLTSNETLRLPVPTHKNHQLCIGEIFQGLDILKNQTVRGGTVERLFQNLSLIKKYIDRQKEKCGEERRRTRQFLDYLQEFLGVLSTEWAIEG	soluble
MKRVLVAMSGGVDSSVAALLLKEAGYEVVGAMMRFWPDLPPPSLEAGKPRAWESCCTPDAAYEARRVADRLGIPFYLLDYREVFEEEIISPFLQDYAQGRTPNPCARCNTFVKFGALLKQARRLGLDYVATGHYVRKEGLALLRGLDPHKDQTYFLWGTPKEALPHLLFPVGGLTKPEVRALAEKAGLPTARRPESQNLCFVAGDLKGFLKERLKPRPGPLVDALTGEVVGEHEGASLYTLGQRKGLGLYKTHLERYVVGVDPERNVVYVGPKEACYFEGLEGEGLNLLAELPEEVEVQVRYRTPPVRAKVESLSPLRLRFAHPVFAVTPGQSAVFYRGERLLGGAVIRRGLYNLAGLEDPRALTFS	soluble
MGSDKIHHHHHHMIGLNCKPLYIENAENQLYNPTLNIKTTMTYLETAAQFYSEVAQTPQVGLCCVQSTPLQLPGLKIPLSMQEMNYGCGTTVHPTELGKQPTVLYVGVGGGLEALQFAYFSRRPGAVIAVDPVAAMREAAARNLEMALTDNPWFESSFVEIREGDAFNLPVADGSVDIVAQNCLFNIFEPEDLTRALKEAYRVLKCGGRLQMSDPIATSPIPAHLQQDERLRAMCLSGALTYEEYTQRIIDAGFGQIEIRARRPYRLLDSQTYNLETHLLLESLDSVSFKVPIPEDGACIFTGKTAIYAGCEDFFDDKAGHILQRGIPATVCDKTAAKLATVKPKEVIITDSTWHYNGGGCC	not soluble
MSLTAYQASSQARVDAAMHTLFTAPSPELARLYEAMRYSVMNGGKRVRPLLAYAACEALGGKPEQANGAACAVELIHAYSLVHDDLPAMDDDDLRRGQPTTHKAFDEACAILAGDGLQSLAFSALLDPALSDASAEIRLRMVTTLAQAAGPAGMVGGQAIDLGSVGLKLDQQALEYMHRHKTGALIEASVILGALASGRAEKGELKALQTYAQAIGLAFQVQDDILDVESDTATLGKRQGADIARDKPTYPALLGLAAAKEYALELRDQALHALRPFDAAAEPLRELARYIVERRSEGHHHHHH	soluble
